- assay.comment: soluble on expression in E. coli; label from the status in PepcDB or PDB records
parameter: soluble on expression in E. coli

For EPAHGRQHTPCLFCDRLFASAEETFSHCKLEHQFNIDSMVHKHGLEFYGYIKLINFIRLKNPTVEYMNSIYNPVPWEKDEYLKPVLEDDLLLQFDVEDLYEPVSTPFS , write its soluble on expression in E. coli.
soluble

For DEIIDGEDELEQDDPFEGEDIDPESIQEPEASYDSSSSPSGASNAEDDWQDEHRVRKFHINGVTVKAIAERVQYYDADGKLVTESFKDYTRKTMAKQFTSMDDFVKRWQDADKKQAIIDELAEEGIIWEALELEVGKDLDPFDMICHVVYDQPALTRKERADNVKKRNYFTKYGETAQQVLNNLLDKYADEGVQEIENIHVLKVKPFDEMGRPAEIVKKCFGGKEQYLEAISELEAEIY , write its soluble on expression in E. coli.
not soluble

For MGSDKIHHHHHHMADGAEFKVYTQRFIMEKIAYYLGQYHSLEENNAFWGEGFTEWHNVAKARPLFPSHRQPVLPGKLGFYDLRNNDTIEEQVALADSFGVTAFCHWHYWFGGKRVLYRPFDSMLKIQNSPVKVMLGWANESWTGIWHGLSDQVIFEQPYNKIELNEHAKLLADYFRHENYLKVNGKAAFLIYKPRKIPESKSYLQLLRQKVYENCGLDMYIIGTWGPGRLEVIHSADELGLDALVANNVGATFKSELSRKLYNGFWTAAKSLGLGPELRNYASTVKTLEYAHQNISGTVHSTIVTGWDNSPRSNRRALVLTNFNENSFKYAIDIAISNEKNNENKLLFIKSWNEWAEGNTLEPRFKEDWSLGKVLKKQIIKHDV , write its soluble on expression in E. coli.
not soluble

For MSESSVTTEIVVRLPKQMVTELDGIGKQENKNRHELICQATQLLLRQHKTKKRYQHESMRRGYIEMGKINLGIASEAFLAEYEAAHTVERLVSGG , write its soluble on expression in E. coli.
not soluble

For VSIAQAQVVVSSKIDTEGGVLGNIILAVLNQNKIETTDRIQLGATPVVRKAITAGEIDIYPEYTGNAAFFFSKADDPLWKDAAKGYEEAKTLDYDANKIVWLAPSPANNTWAIALRKDVADKNNLKTLSDFGKYVAGGGTVVLAASSEFVNSAAALPAFQTTYGFTMKPDQLITLSGGDTAATIAAAANQTNNANAAMVYGTDGGIAPSGLVVLEDDKHVQPVYQPAPIIREEVLKKHPNIEELLKPVFEKLDLATLQDLNARVQVGGEQAKTVAMDFLTKNGFAK , write its soluble on expression in E. coli.
soluble

For MNTDEYYMRLAMEEAKKAEQIGEVPIGAVIVQDGRVIARAHNLRETEQRAIAHAEILAIDEACRATGSWRLERATLYVTLEPCAMCAGAIVLSRIERVVFGAFDPKGGCAGTLMNLLQESRFNHQVKVVSGVLADECGSLLSQFFRRLREQKRNVGGSANENSVD , write its soluble on expression in E. coli.
not soluble

Query sequence follows.
For MRLGICSHTLCPPIEGNIKQHLHNPMKEEEFNELKQNLDSYTPLLPESVTDYFMEKAGVVTSDQSVKKLVSLLAHKFVTDIAVSSFQYHRINQKAAQKDKRFAKEKKPTFQLVDLEKALEEVGISISRPHYYM , write its soluble on expression in E. coli.
not soluble
